Where do these numbers come from? They come from patent US8791118B2.

Item-by-item account of melting point

                                   compound         result
0  C[C@H](CCCc1ccccc1)NC(=O)Nc1ccc2ncc(-c3cn[nH]c3)nc2n1 [Compound 171]  274 to 276 °C
1  COc1ccc(-c2cnc3ccc(NC(=O)NCCCCc4ccccc4)nc3n2)cc1OC [Compound 178]  210 to 211 °C
2  C[C@H](CCCc1ccccc1)NC(=O)Nc1ccc2ncc(N3CCN(C)CC3)nc2n1 [Compound 153]  172 to 175 °C
3  O=C(NCCCCc1ccccc1)Nc1ccc2ncc(-c3ccc(O)c(Cl)c3)nc2n1 [Compound 186]  241 to 243 °C
4  CC(CCCc1ccccc1)NC(=O)Nc1ccc2ncc(-c3cnn(C)c3)nc2n1 (stereo not shown) [Compound 164]  204 to 208 °C
5  Cc1n[nH]c(C)c1-c1cnc2ccc(NC(=O)N[C@H](C)CCCc3ccccc3)nc2n1 [Compound 177]  266 to 269 °C

Return the recorded melting point value; entry: O=C(NCCCCc1ccccc1)Nc1ccc2ncc(-c3ccn[nH]3)nc2n1 [Compound 105] 280 °C (dec.)

Quickly give me recorded melting point for CCCNc1cnc2ccc(NC(=O)NCCCCc3ccccc3)nc2n1 [Compound 119] 118 to 120 °C

Answer with the recorded melting point of COc1ccc(-c2cnc3ccc(NC(=O)N[C@H](C)CCCc4ccccc4)nc3n2)cc1O [Compound 148] only. 196 to 198 °C

Supply melting point value. Item: C[C@H](CCCc1ccccc1)NC(=O)Nc1ccc2ncc(-c3ccc(O)cc3)nc2n1 [Compound 147] 226 to 229 °C

# return recorded melting point for entry COc1cc(CO)ccc1-c1cnc2ccc(NC(=O)N[C@H](C)CCCc3ccccc3)nc2n1 [Compound 156] 168 to 170 °C

Note melting point for the compound shown: O=C(NCCCCc1ccccc1)Nc1ccc2ncc(-c3cccc(C(=O)O)c3)nc2n1 [Compound 198] 254 to 256 °C

Give the value of melting point reported for the following: COc1ncccc1-c1cnc2ccc(NC(=O)NCCCCc3ccccc3)nc2n1 [Compound 146] 194 to 197 °C

----------
Assay metric: melting point

Solved entries:
In [3]: df
Out[3]:
                                   molecule   assay_metric         result
0  COc1ccccc1-c1cnc2ccc(NC(=O)N[C@H](C)CCCc3ccccc3)nc2n1 [Compound 179]  melting point  137 to 138 °C
1  CCOC(=O)Oc1ccc(-c2cnc3ccc(NC(=O)NCCCCc4ccccc4)nc3n2)cc1 [Compound 132]  melting point         212 °C
2  Cc1cc(O)ccc1-c1cnc2ccc(NC(=O)NCCCCc3ccccc3)nc2n1 [Compound 106]  melting point  207 to 210 °C

Indicate its recorded melting point; the molecule in question is O=C(NCCCCc1ccccc1)Nc1ccc2ncc(-c3ccc(O)cc3)nc2n1 [Compound 160] 233 to 235 °C

Let me know recorded melting point for COc1c(CO)cccc1-c1cnc2ccc(NC(=O)N[C@H](C)CCCc3ccccc3)nc2n1 [Compound 158] , thanks. 168 to 170 °C

Could you please provide reported melting point for C[C@H](CCCc1ccccc1)NC(=O)Nc1ccc2ncc(-c3ccc(O)c(Cl)c3)nc2n1 [Compound 129] ? Thanks! 225 to 228 °C

Tell me measured melting point for COc1ccc(-c2cnc3ccc(NC(=O)NCCCCc4ccccc4)nc3n2)cc1O [Compound 151] please. 230 to 232 °C

Determine from records and report melting point for CC(C)(C)C(=O)Oc1ccc(-c2cnc3ccc(NC(=O)NCCCCc4ccccc4)nc3n2)cc1 [Compound 135] 225 °C
